tested on: IGROV1 ovarian; test: NCI-60 one-dose screen, 48 h; conditions: 10 µM unless noted
The panel holds about 83,000 compounds, 20% with a hit somewhere; the sample as a whole holds those more often. Active and inactive are the calls of the source. Rule for the calls: active = growth percent below 10; inactive = the rest.
Write down the outcome that applies. Available outcomes: TRUE for active, FALSE for inactive

> print(dat)
                                   molecule  assignedlabel
1  CN(C)c1nc(NCCNS(=O)(=O)c2ccc(C(=O)/C=C/c3ccc(F)cc3)cc2)nc(Nc2ccc(F)cc2)n1           TRUE

Per the records of this test, what outcome belongs to O=c1cc(-c2ccccc2)oc2cc(OCCCC[P+](c3ccccc3)(c3ccccc3)c3ccccc3)cc(O)c12 ?
TRUE

Per the records of this test, what outcome belongs to CN(C)c1ccnc(CNCCSC2(c3ccccc3)c3ccccc3C=Cc3ccccc32)c1 ?
FALSE

Per the records of this test, what outcome belongs to C/C(=N\N=C1/C(=O)Nc2ccccc21)c1ccc2c(c1)Nc1ccccc1S2 ?
FALSE

Per the records of this test, what outcome belongs to Cc1ccc(C(SCCNCc2cc(N(C)C)ccn2)(c2ccccc2)c2ccccc2)cc1 ?
TRUE

Value source: PubChem BioAssay (NCI)
